System: human plasma proteins
Assay: Protein binding of [^14C] DHA, equilibrium dialysis, human plasma
Type: in vitro ADME
Conditions: both sexes; undiluted human plasma, 0.15 to 57800 ng/ml, 37°C, five hours; read-out: plasma protein binding percentage
Description: Human blood samples (five men and five women) were freshly obtained from subject volunteers at the Department of Clinical Trials, WRAIR. Rat samples were freshly collected from five male and five female rats. Equilibrium dialysis was performed using Teflon dialysis chambers and Diachema standard membranes as described by Li and Hümpel. The GD-4/90 Equilibrium Dialyzer (MM Developments, Ottawa) contained 20 micro-dialysis cells (2.0 ml/chamber). […]
readout-label: fraction unbound at 5 h

Data point: C[C@H]1[C@@H](O)O[C@@H]2O[C@@]3(C)CC[C@H]4[C@H](C)CC[C@@H]1[C@@]24OO3 [DHA, 10'dihydro-artemisinin] ; fraction unbound at 5 h = 0.18 to 0.24
